organism: Rattus norvegicus; test: Alpha-adrenolytic activity (pA2) on the descending thoracic branch of the rat aorta; format: functional
Criterion: Alpha-adrenolytic activity meeting or surpassing 7. Met: true (1). Not met: false (0).

# count of solved cases: 3
>>> label_class("O=[N+]([O-])O.c1ccc(C(CNC2CCCCC2)C2CCCCC2)cc1 (configuration not stated)")
"true (1)"
>>> label_class("C1CCC(NCCC(C2CCCCC2)C2CCCCC2)CC1.Cl")
"true (1)"
>>> label_class("C1CCC(NCCC23CC4CC(CC(C4)C2)C3)CC1.O=C(O)/C=C\\C(=O)O")
"false (0)"

Evaluate CC(C)(C)NCC(c1ccccc1)C1CCCCC1.Cl (configuration not stated) : Alpha-adrenolytic activity at minimum 7?
true (1)

Has C1CCC(C(CC2CCCCN2)C2CCCCC2)CC1 (configuration not stated) a recorded Alpha-adrenolytic activity greater than or equal to 7?
false (0)

Hello, I need to know if `C1CCC(NCCCC(C2CCCCC2)C2CCCCC2)CC1.Cl` has measured Alpha-adrenolytic activity not below 7. Thanks!
false (0)

====

species: Rattus norvegicus; assay: Alpha-adrenolytic activity (pA2) on the descending thoracic branch of the rat aorta; assay type: functional
Parameter: Alpha-adrenolytic activity. Scope: all listed entries.
// response body must contain only the number

# input molecule: CC(CCc1ccccc1)NCC(c1ccccc1)C1CCCCC1.O=C(O)/C=C\C(=O)O (stereo not given) ; wanted: its Alpha-adrenolytic activity
7.6

I am curious: what Alpha-adrenolytic activity value has been reported for `C1CCC(NC(C2CCCCC2)C2CCCCC2)CC1.Cl` ?
6.2

// lookup Alpha-adrenolytic activity for `CN(CCC(C1CCCCC1)C1CCCCC1)C1CCCCC1.O=C(O)/C=C\C(=O)O`
6.15

So what does the record say about Alpha-adrenolytic activity for CN1CCCCC1CC(C1CCCCC1)C1CCCCC1 (stereo not given) ?
6.9

Which Alpha-adrenolytic activity is listed for CC(Cc1ccccc1)NCCC12CC3CC(CC(C3)C1)C2.O=C(O)/C=C\C(=O)O (stereo not given) ?
7.3

Returns the measured Alpha-adrenolytic activity for the input molecule. Input: O=[N+]([O-])O.c1ccc(C(CNC2CCCC2)C2CCCCC2)cc1 (stereo not given)
5.9

====

organism: Rattus norvegicus; test: Alpha-adrenolytic activity (pA2) on the descending thoracic branch of the rat aorta; assay type: functional
The following compounds are shown together with reported Alpha-adrenolytic activity values.
Lab note: write the figure by itself, no unit.

Check out these entries, answers already filled in.
>>> measurement("CC(CCc1ccccc1)NCCC12CC3CC(CC(C3)C1)C2.O=C(O)/C=C\\C(=O)O (centres undefined)")
7.15
>>> measurement("Cc1ccc(C(CNC2CCCCC2)C2CCCCC2)cc1.O=C(O)/C=C\\C(=O)O (centres undefined)")
6.55

Next, consider the following compound.
Looking for the measured Alpha-adrenolytic activity of CC(Cc1ccccc1)NCC(c1ccccc1)C1CCCCC1.O=C(O)/C=C\C(=O)O (centres undefined) , can you help?
6.9

Attribution: ChEMBL document CHEMBL1122077
